target: T1, human tumor necrosis factor-α (rHuTNF-alpha, Biosource) (human, UniProt P01375 77-233); experiment: solid-phase ELISA, Fab lysate on coated rHuTNF-alpha
T1 construct: Bought recombinant protein coated on ELISA plates; The TNFα of the Biacore assay is not described further; also called TNFα; human TNFα
T1 sequence (P01375 77-233 limits assumed): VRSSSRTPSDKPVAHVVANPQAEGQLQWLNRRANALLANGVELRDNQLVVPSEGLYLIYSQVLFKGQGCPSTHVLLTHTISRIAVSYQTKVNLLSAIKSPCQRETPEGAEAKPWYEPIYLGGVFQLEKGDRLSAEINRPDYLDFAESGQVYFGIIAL

Binder	binding result
SEQ ID NO 46 (Fab, V domains shown, Fab, E. coli lysate) VH: EVQLVESGGGLVQPGGSLRLSCRASGSTFSNHYMNWVRQAPGKGLEWIGEIRSKSSYGATSYAESVKGRFIISRDGNGNDLYLEMNSLKTEDTAEYYCAQNYYGSTPDYWGQGTLVTVS VL: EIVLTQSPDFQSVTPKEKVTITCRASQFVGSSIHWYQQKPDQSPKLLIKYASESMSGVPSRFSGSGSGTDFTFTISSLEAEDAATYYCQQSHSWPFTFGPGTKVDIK	binds
SEQ ID NO 13 (Fab, V domains shown, Fab, E. coli lysate) VH: EVQLTESGGGLVQPGGSLRLSCAASGSIFSNHYMNWVRQAPGKGLEWIGEIRSKSSNSATHYAESVKGRFIISRDDNKTDLYLEMNSLKTEDTAEYYCARNYYGSTYDYWGQGTLVTVS VL: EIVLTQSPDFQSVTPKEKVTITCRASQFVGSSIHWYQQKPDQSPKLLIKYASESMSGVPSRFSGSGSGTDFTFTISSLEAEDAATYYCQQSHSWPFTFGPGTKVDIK	binds
SEQ ID NO 65 (Fab, V domains shown, Fab, E. coli lysate) VH: EVQLVESGGGLVQPGGSLRLSCRASGFIFSNHWMNWVRQAPGKGLEWIGEIRSKSIYGATHYAESVKGRFIISRDDNKNSLYLEMNSLKTEDTAEYYCAQNYYGSTYDYWGQGTLVTVS VL: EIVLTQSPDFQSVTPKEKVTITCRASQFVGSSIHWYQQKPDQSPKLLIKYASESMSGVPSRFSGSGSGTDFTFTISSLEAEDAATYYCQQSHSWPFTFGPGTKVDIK	binds
